protein stability index values, listed per item
B1: PKD2L1 (parent)
chain: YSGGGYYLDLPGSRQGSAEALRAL

variants of: B1; assay: protein stability index of a GFP-peptide fusion (GPS, HEK-293T) (PSI 1-6); higher = more stable; conditions: c terminus: a fixed tail appended;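 further: lentivirally expressed fusions sorted by FACS into six bins by GFP to DsRed ratio, PSI derived from sequencing read proportions per bin multiplied by bin number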

QUERY_SEQUENCE: YSGGGYYLDLLGSRQGSAEALRAL [P11L]
protein stability index: 2.54
//
QUERY_SEQUENCE: YSGGGYYTDLPGSRQGSAEALRAL [L8T]
protein stability index: 3.55
//
QUERY_SEQUENCE: YSGGGYYLDLPGSRQSSAEALRAL [G16S]
protein stability index: 2.27
//
QUERY_SEQUENCE: YSGGGYDLDLPGSRQGSAEALRAL [Y7D]
protein stability index: 3.25
//
QUERY_SEQUENCE: YSGGGYYLDLPGSRQGSAECLRAL [A20C]
protein stability index: 3.77
//
QUERY_SEQUENCE: YSSGGYYLDLPGSRQGSAEALRAL [G3S]
protein stability index: 1.73
//
QUERY_SEQUENCE: YSFGGYYLDLPGSRQGSAEALRAL [G3F]
protein stability index: 1.45
//
QUERY_SEQUENCE: YSGGGYYLDLPGSRQGSAETLRAL [A20T]
protein stability index: 2.65
//
QUERY_SEQUENCE: YSGGGGYLDLPGSRQGSAEALRAL [Y6G]
protein stability index: 1.84
//
QUERY_SEQUENCE: YSGGGYYLDLPGSNQGSAEALRAL [R14N]
protein stability index: 1.63
//
QUERY_SEQUENCE: YSGGDYYLDLPGSRQGSAEALRAL [G5D]
protein stability index: 2.28
//
QUERY_SEQUENCE: YSGSGYYLDLPGSRQGSAEALRAL [G4S]
protein stability index: 2.08
//
QUERY_SEQUENCE: GSGGGYYLDLPGSRQGSAEALRAL [Y1G]
protein stability index: 3.66
//
QUERY_SEQUENCE: YSGGGYYLDLRGSRQGSAEALRAL [P11R]
protein stability index: 3.15
//
QUERY_SEQUENCE: YSGGGYYLDRPGSRQGSAEALRAL [L10R]
protein stability index: 2.97
//
QUERY_SEQUENCE: YSGGGYYLDLPGSDQGSAEALRAL [R14D]
protein stability index: 1.82
//
QUERY_SEQUENCE: YSGGGSYLDLPGSRQGSAEALRAL [Y6S]
protein stability index: 3.28
//
QUERY_SEQUENCE: YSHGGYYLDLPGSRQGSAEALRAL [G3H]
protein stability index: 2.02
//
QUERY_SEQUENCE: YSGGGYYLDLPGSRQGNAEALRAL [S17N]
protein stability index: 2.01
//
QUERY_SEQUENCE: YSGGLYYLDLPGSRQGSAEALRAL [G5L]
protein stability index: 1.6
//
QUERY_SEQUENCE: MSGGGYYLDLPGSRQGSAEALRAL [Y1M]
protein stability index: 2.99
//
QUERY_SEQUENCE: YQGGGYYLDLPGSRQGSAEALRAL [S2Q]
protein stability index: 2.3
//
QUERY_SEQUENCE: YSGTGYYLDLPGSRQGSAEALRAL [G4T]
protein stability index: 2.53
//
QUERY_SEQUENCE: YSGGGYYLPLPGSRQGSAEALRAL [D9P]
protein stability index: 1.66
//
QUERY_SEQUENCE: YSGGGYYLDLPGSRQGSAEAFRAL [L21F]
protein stability index: 2.09
//
QUERY_SEQUENCE: YSGGGYYLDLPGSRQGSATALRAL [E19T]
protein stability index: 1.77
//
QUERY_SEQUENCE: YSGGGYYLDLPGSRQGSAQALRAL [E19Q]
protein stability index: 1.63
//
QUERY_SEQUENCE: YSGGGYYLDLPGSRQGSFEALRAL [A18F]
protein stability index: 1.57
//
QUERY_SEQUENCE: YSGGGYYLDLPGGRQGSAEALRAL [S13G]
protein stability index: 2.58
//
QUERY_SEQUENCE: YSDGGYYLDLPGSRQGSAEALRAL [G3D]
protein stability index: 2.5
//
QUERY_SEQUENCE: YSGGGYYLDCPGSRQGSAEALRAL [L10C]
protein stability index: 2.31
//
QUERY_SEQUENCE: YSGGGYYLDLPGSRQGSAYALRAL [E19Y]
protein stability index: 2.23
//
QUERY_SEQUENCE: YWGGGYYLDLPGSRQGSAEALRAL [S2W]
protein stability index: 2.13

Origin of values: the supplement of paper PMC10567573
